Biological target: T1, beta-catenin in TCF/LEF luciferase reporter cells (Homo sapiens (Human), UniProt P35222 1-781)
T1 sequence: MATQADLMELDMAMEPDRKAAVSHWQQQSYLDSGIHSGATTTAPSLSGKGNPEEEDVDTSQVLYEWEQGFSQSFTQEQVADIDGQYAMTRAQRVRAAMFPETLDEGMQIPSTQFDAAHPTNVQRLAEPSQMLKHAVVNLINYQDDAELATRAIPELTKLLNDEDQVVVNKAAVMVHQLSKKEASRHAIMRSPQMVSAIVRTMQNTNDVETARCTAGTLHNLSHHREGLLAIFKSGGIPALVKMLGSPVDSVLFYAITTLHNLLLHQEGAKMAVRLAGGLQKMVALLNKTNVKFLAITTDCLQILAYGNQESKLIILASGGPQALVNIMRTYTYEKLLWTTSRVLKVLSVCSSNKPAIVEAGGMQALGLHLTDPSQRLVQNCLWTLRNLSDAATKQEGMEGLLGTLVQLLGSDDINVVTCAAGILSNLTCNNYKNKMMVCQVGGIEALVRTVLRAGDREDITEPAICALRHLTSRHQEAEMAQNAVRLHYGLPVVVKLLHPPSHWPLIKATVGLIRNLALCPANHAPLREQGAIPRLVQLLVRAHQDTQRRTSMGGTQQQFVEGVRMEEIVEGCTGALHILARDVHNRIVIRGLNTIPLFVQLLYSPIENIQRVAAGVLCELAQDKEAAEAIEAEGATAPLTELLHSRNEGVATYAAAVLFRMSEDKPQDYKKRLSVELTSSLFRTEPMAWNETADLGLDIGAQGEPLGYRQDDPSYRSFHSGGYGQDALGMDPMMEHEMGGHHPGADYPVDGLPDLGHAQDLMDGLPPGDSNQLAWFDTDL
Assay: cell-based or functional assay
Starred links: 1 amine or outer side, 2 acyl side, 3 side chain; linkers in the order of their positions; H or OH if unused. Positions of bridges follow the written chain, without caps; N, C: chain ends. Non-standard residues stand in square brackets, D forms with d. Primed or numbered codes have the meaning given here. PyrS2(3) = (S)-3-amino-1-((pent-4-en-1-yloxy)carbonyl)pyrrolidine-3-carboxylic acid, stapling residue, C=CCCCOC(=O)N1CC[C@@](N[*:1])(C(=O)[*:2])C1; PyrS2″ = (S)-3-amino-1-((pent-4-en-1-yloxy)carbonyl)pyrrolidine-3-carboxylic acid (stapling residue), C=CCCCOC(=O)N1CC[C@@](N[*:1])(C(=O)[*:2])C1; TfeGA = (S)-2-amino-3-((carboxymethyl)(2,2,2-trifluoroethyl)amino)propanoic acid, O=C([C@H](CN(CC(=O)[*:3])CC(F)(F)F)N[*:1])[*:2]; PyrS2 = (S)-3-amino-1-((pent-4-en-1-yloxy)carbonyl)pyrrolidine-3-carboxylic acid, C=CCCCOC(=O)N1CC[C@@](N[*:1])(C(=O)[*:2])C1; B5(3) = 2,2-bis(4-pentenyl)glycine (stitching residue), C=CCCCC(CCCC=C)(N[*:1])C(=O)[*:2]; B5″ = 2,2-bis(4-pentenyl)glycine, stitching residue, C=CCCCC(CCCC=C)(N[*:1])C(=O)[*:2]; Phe(2-Cl) = N[C@@H](Cc1ccccc1Cl)C(=O)O; Bta = N[C@@H](Cc1csc2ccccc12)C(=O)O; αAllylPro = C=CC[C@@]1(C(=O)O)CCCN1; tBuAla = CC(C)(C)C[C@H](N)C(=O)O; 3Thi = N[C@@H](Cc1ccsc1)C(=O)O; hSer = N[C@@H](CCO)C(=O)O
Exercise: state measured TCF Reporter Assay Abs IC50 (uM), peptide only for each of the binders provided.
Answers are plain numbers, in µM.

Would you please look over these solved cases?
BINDER	MEASURED_VALUE
Ac-[αAllylPro]D[tBuAla][B5″]D[TfeGA]AAFN[PyrS2(3)][3Thi][Bta]Q-NH2 (staple 1-4, 4-11) [I-762]	7
Ac-[αAllylPro]D[tBuAla][B5(3)]D[TfeGA]AAF[hSer][PyrS2″][Phe(2-Cl)][Bta][hSer]-NH2 (staple 1-4, 4-11) [I-993]	5
Ac-[αAllylPro]D[tBuAla][B5(3)]D[TfeGA]AAFT[PyrS2″][Phe(2-Cl)][Bta]Q-NH2 (staple 1-4, 4-11) [I-922]	5

Measured TCF Reporter Assay Abs IC50 (uM), peptide only of Ac-[αAllylPro]D[tBuAla][B5(3)]D[TfeGA]AAFL[PyrS2][3Thi][Bta]Q-NH2 (staple 1-4, 4-11) [I-849] : 5
